Data credit: PubChem BioAssay

System: glycogen synthase kinase-3 (GSK3A per assay name; protocol says GSK3B)
Assay: GSK3 binders on small-molecule microarrays, primary screen, biochemical, small-molecule microarray, 635 nm fluorescence, GSK3A (AID 1103); note: the record names both GSK3A and GSK3B
Conditions: small-molecule microarray binding, fluorescence 635 nm; higher = more signal
Could you please classify the records by composite z-score using these ranges: lower band (below 0.002), central band (0.002 to below 0.6), upper band (0.6 or more)

| compound | classLabel |
| --- | --- |
| CC1=C[C@@]2(CO)C(=O)[C@]3(CO3)[C@@H]1[C@H]1[C@]2(C)C=C(CO)C(=O)[C@]12CO2 | central band |
| C=C(C)c1cc2c(c(CCCCCC)n1)[Si](C(C)C)(C(C)C)OC2 | lower band |
| OCC1CC(c2ccccc2)=NO1 (stereo unspecified) | lower band |
| CCOc1cc(C(O)C2C=CC3C(=O)N(C)C(=O)C3N2Nc2ccccc2)ccc1O (stereo unspecified) | central band |
| COCC1=C2[C@@H](CCc3ccccc3)OB(O)C[C@@H]2[C@@H]2C(=O)C=CC(=O)[C@@H]2C1 | upper band |
| Cc1ccc(S[C@]2(C(=O)NCC(F)(F)F)CC(=O)N(C3CCCCC3)[C@@H]2c2ccc(CO)cc2I)cc1 | upper band |
| COC(=O)c1ccc([C@H](NC(=O)c2ccco2)[C@]2(C)C[C@H]2C2CCCCC2)cc1 | lower band |
| C=CCC(OC(C)=O)[C@@H]1[C@@H](N(Cc2ccc(-c3ccccc3)cc2)C(=O)Cc2ccc(F)cc2)c2cc(OCCCO)ccc2N1C(=O)Cc1ccc(OC)cc1 (stereo partly specified) | central band |
| C=CCOC(=O)[C@H]1[C@@H]2C(=O)O[C@@H](c3ccccc3)[C@@H](c3ccccc3)N2[C@@H](c2ccc(OCCOC(=O)[C@H]3C[C@H]4C(=O)N[C@@H](CCCCNC(C)=O)C(=O)N4[C@H]3c3ccc(O)cc3)cc2)[C@]12C(=O)Nc1ccccc12 | upper band |
| O=C1NC(=O)C2C1C=CC(C(O)c1cccc3ccccc13)N2Nc1ccc(Cl)cc1Cl (stereo unspecified) | central band |
| C[N+](C)(C)CCCCCCNC(=O)[C@H]1C[C@H]2C(=O)N[C@@H](Cc3ccccc3)C(=O)N2[C@H]1c1ccc(O)cc1 | upper band |
| [N-]=[N+]=NCc1ccccc1C[C@@]1(C(=O)N2CCOCC2)N=C(c2ccc(OCCCO)cc2)O[C@@H]1c1ccccc1 | upper band |
| O=C(NCC(F)(F)F)[C@@H]1c2ccccc2C(=O)N(Cc2ccccc2C(F)(F)F)[C@H]1c1ccc(CO)cc1 | lower band |
| CN(C)CCCNC(=O)[C@@]1(C)c2ccccc2C(=O)N(Cc2ccccc2)[C@H]1c1ccc(CO)cc1 | lower band |
| O=c1n(-c2ccccc2)c(=O)n2n1CC(COc1ccccc1)=C([C@H](O)CCc1ccccc1)[C@@H]2CO | lower band |
| C[N+](C)(C)CCCCCCNC(=O)[C@H]1C[C@H]2C(=O)NCC(=O)N2[C@H]1c1ccc(O)cc1 | upper band |

---

The following molecules are shown together with reported composite z-score values.
Test: anti-His antibody binders, primary screen, artefact control for SMM control protein annotation, biochemical, small-molecule microarray, 635 nm fluorescence (AID 1128);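 note: score merges feature fluorescence with signal-to-noise for each printed compound spot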
Conditions: anti-His Alexa647 antibody binding, higher = more signal
observable: composite z-score

| molecule | readoutValue |
| --- | --- |
| COC(=O)[C@@]1(Cc2ccccc2N=[N+]=[N-])N=C(c2ccc(OCCCO)cc2)O[C@H]1c1ccccc1N=[N+]=[N-] | 1.08 |
| COc1ccc(CCNC(=O)[C@@H]2c3ccccc3C(=O)N(Cc3cc(C(F)(F)F)cc(C(F)(F)F)c3)[C@H]2c2ccc(CO)cc2)cc1 | 2.15 |
| O=C1N(Cc2ccccc2)Cc2ccccc2[C@@H]2OC(c3ccc(OCCCO)cc3)=N[C@]12CCS(=O)(=O)c1ccccc1 | 0.624 |
| C=C(C)[C@@H]1CC=C(C(O)C2C=CC3C(=O)N(c4ccccc4)C(=O)C3N2Nc2ccccc2F)CC1 (some centres undefined) | 0.282 |
| NC(N)=NCCCn1cc(CNC(=O)[C@@H](N)Cc2ccccc2)nn1 | 0.499 |
| CCOC(=O)C[C@H]1[C@H](OC(=O)c2ccccc2-c2ccccc2)[C@@H](NC(=O)C2CCCCC2)c2cc(OCCCO)ccc2N1C(=O)Cc1ccc(OC)cc1 | 0.0271 |
| COC(=O)[C@@]1(Cc2ccc(OC)cc2)[C@@H]2C(=CC(=O)[C@H]2CC(=O)C(=O)N(C)C)CN1C(=O)c1ccccc1 | 0.318 |
| CCCC[C@@H]1C[C@H]1[C@@H](NC(=O)c1ccccc1)c1ccc(C(F)(F)F)cc1 | 0.581 |
| COCC1=C2[C@@H](CCc3ccccc3)OB(O)C[C@@H]2[C@@H]2C(=O)C=CC(=O)[C@@H]2C1 | 1.39 |
| COCCCNC(=O)[C@@]1(Cc2ccccc2CN=[N+]=[N-])N=C(c2ccc(OCCCO)cc2)O[C@H]1c1ccccc1 | 1.75 |
| CCOC(=O)C[C@H]1[C@H](OC(=O)Cc2ccc3c(c2)OCO3)[C@@H](NC(=O)CC(C)C)c2cc(OCCCO)ccc2N1C(=O)Cc1ccc(OC)cc1 | -0.114 |
| COc1ccccc1CN1C(=O)c2ccccc2[C@](Cc2ccccc2I)(C(=O)NCC(F)(F)F)[C@@H]1c1ccc(CO)cc1 | 2.25 |
| NC(=O)NCC#Cc1ccc2c(c1)[C@]1(C(=O)N2)[C@H](C(=O)O)[C@H]2C(=O)O[C@H](c3ccccc3)[C@H](c3ccccc3)N2[C@@H]1c1ccc(OCCO)cc1 | 0.894 |
| COCCOC(=O)N1C(=O)[C@@]2(c3cc(C#Cc4ccc(OC)cc4)ccc31)[C@H](c1ccc(O)cc1)N1[C@H](c3ccccc3)[C@H](c3ccccc3)OC(=O)[C@H]1[C@@H]2C(=O)N1CCCCCCC1 | -1.01 |
